Source listed as paper PMC12376128.

Test: Metabolic stability in hepatocytes
Measurement Setup: ICR, mouse, hepatocytes
Readout Kind: half-life at 1 µM (min)
Numbers only here, please. The scale is min.

>>> print(df.to_string())
                                   compound       readout_kind  experimental_result
0  C[C@]12CC[C@H]3[C@@H](CCC4=CC(=O)CC[C@@]43C)[C@@H]1CC[C@@H]2O [Testosterone, testosterone]  half-life at 1 µM                 14.9
1  C=C(F)C(=O)N1CC(n2c(=O)n(-c3ccc(C(F)(F)F)cc3)c3nccnc32)C1 [BPI-460372]  half-life at 1 µM                  134

Now consider the entry below.
Hello, please tell me recorded half-life at 1 µM for this one: O=c1ccc2ccc(O)cc2o1 [7-hydroxycoumarin]
49.3
